Values from patent US11505539B2

- TEST METHOD NOTES: Microsomal intrinsic clearance assay
- Format: in vitro ADME
- ASSAY CONTEXT: pH 7.4, liver microsomes 0.5 mg/mL, species (mouse or human) not given
Documented half-life at 1 μM across a set of molecules

{"MOLECULE": "[2H]C([2H])([2H])NC(=O)C([2H])([2H])Oc1cc2cc(Nc3nc(N4C[C@@H](C)C(F)(F)[C@@H](C)C4)ncc3Cl)ccc2n(C)c1=O", "half-life at 1 μM": "82 min"}
{"MOLECULE": "[2H]C([2H])([2H])NC(=O)C([2H])([2H])Oc1cc2cc(Nc3nc(N4C[C@H](C)C[C@H](C)C4)ncc3Cl)ccc2n(C)c1=O", "half-life at 1 μM": "29 min"}
{"MOLECULE": "CNC(=O)COc1cc2cc(Nc3nc(N4C[C@H](C)C[C@H](C)C4)ncc3Cl)ccc2n(C)c1=O [BI-3802, reference compound]", "half-life at 1 μM": "12 min"}
